# target_of_assay: HIV-1 protease (Human immunodeficiency virus type 1 group M subtype B, UniProt P04585)
# Construct: The protease (or proteinase) enzyme, consisting of only 99 amino acids
# assay_explanation: In vitro HIV protease inhibitory assay (fluorescently labeled substrate, avidin-polystyrene particles)
# Format: biochemical
# experimental_setup: HIV-1 dose 3.3 μM
measured_endpoint: inhibition at 3.3 µM (%)

{"compound": "O=C1OC2(CCCCCC2)C(O)=C1C(c1ccccc1)C1CC1 (centres unmarked)", "target_of_assay": "HIV-1 protease (Human immunodeficiency virus type 1 group M subtype B, UniProt P04585)", "measured_endpoint": "inhibition at 3.3 µM", "assay_value": 104}
{"compound": "CCC(CC)C1OC(=O)C(C(c2ccccc2)C2CC2)=C1O (centres unmarked)", "target_of_assay": "HIV-1 protease (Human immunodeficiency virus type 1 group M subtype B, UniProt P04585)", "measured_endpoint": "inhibition at 3.3 µM", "assay_value": 85.9}
{"compound": "CCCCC1(CCCC)OC(=O)C(C(c2ccccc2)C2CC2)=C1O (centres unmarked)", "target_of_assay": "HIV-1 protease (Human immunodeficiency virus type 1 group M subtype B, UniProt P04585)", "measured_endpoint": "inhibition at 3.3 µM", "assay_value": 115}
{"compound": "CCCC1(CCC)OC(=O)C(C(c2cccc(NC(=O)OCc3ccccc3)c2)C2CC2)=C1O (centres unmarked)", "target_of_assay": "HIV-1 protease (Human immunodeficiency virus type 1 group M subtype B, UniProt P04585)", "measured_endpoint": "inhibition at 3.3 µM", "assay_value": 100}
{"compound": "CCCC1(Cc2ccccc2)OC(=O)C(C(c2cccc(NS(=O)(=O)c3ccc(F)cc3)c2)C(C)C)=C1O (centres unmarked)", "target_of_assay": "HIV-1 protease (Human immunodeficiency virus type 1 group M subtype B, UniProt P04585)", "measured_endpoint": "inhibition at 3.3 µM", "assay_value": 94.9}

----------
The compounds listed here are annotated with their inhibition at 3.3 µM.
# target_of_assay: HIV-1 protease (Human immunodeficiency virus type 1 group M subtype B)
# Construct: The protease (or proteinase) enzyme, consisting of only 99 amino acids
# assay_explanation: In vitro HIV protease inhibitory assay (fluorescently labeled substrate, avidin-polystyrene particles)
# Assay type: biochemical
# experimental_setup: HIV-1 dose 3.3 μM

{"compound": "O=C1OC(CC=Cc2ccccc2)C(O)=C1C(c1ccccc1)C1CC1 (stereo not drawn)", "target_of_assay": "HIV-1 protease (Human immunodeficiency virus type 1 group M subtype B)", "unit": "%", "inhibition at 3.3 µM": 65.7}
{"compound": "CCCC1(CCC)OC(=O)C(C(Cc2ccccc2)c2cccc(NS(=O)(=O)c3cn(C)cn3)c2)=C1O (stereo not drawn)", "target_of_assay": "HIV-1 protease (Human immunodeficiency virus type 1 group M subtype B)", "unit": "%", "inhibition at 3.3 µM": 90.8}
{"compound": "CCCC1(Cc2cccnc2)OC(=O)C(C(c2ccccc2)C2CC2)=C1O (stereo not drawn)", "target_of_assay": "HIV-1 protease (Human immunodeficiency virus type 1 group M subtype B)", "unit": "%", "inhibition at 3.3 µM": 103}
{"compound": "CCCCC(CCc1ccccc1)C1OC(=O)C(C(c2ccccc2)C2CC2)=C1O (single isomer, unassigned) [GX-1]", "target_of_assay": "HIV-1 protease (Human immunodeficiency virus type 1 group M subtype B)", "unit": "%", "inhibition at 3.3 µM": 74.6}
{"compound": "CCCC1(CCC)OC(=O)C(C(c2ccccc2)C2CC2)=C1O (stereo not drawn)", "target_of_assay": "HIV-1 protease (Human immunodeficiency virus type 1 group M subtype B)", "unit": "%", "inhibition at 3.3 µM": 110}
{"compound": "CCCC1(Cc2ccccc2)OC(=O)C(C(c2cccc(NS(=O)(=O)c3ccc(C#N)cc3)c2)C(C)C)=C1O (stereo not drawn)", "target_of_assay": "HIV-1 protease (Human immunodeficiency virus type 1 group M subtype B)", "unit": "%", "inhibition at 3.3 µM": 123}

----------
# target_of_assay: HIV-1 protease (Human immunodeficiency virus type 1 group M subtype B)
# Construct: The protease (or proteinase) enzyme, consisting of only 99 amino acids
# assay_explanation: In vitro HIV protease inhibitory assay (fluorescently labeled substrate, avidin-polystyrene particles)
# Assay type: biochemical
# experimental_setup: HIV-1 dose 30.0 μM
The compounds listed here are annotated with their inhibition at 30 µM.
measured_endpoint: inhibition at 30 µM

{"compound": "CC1(CCCc2ccccc2)OC(=O)C(C(c2ccccc2)C2CC2)=C1O (stereo not shown) [DX-10]", "measured_endpoint": "inhibition at 30 µM", "assay_value": "91.5%"}
{"compound": "CCCC1(CCC)OC(=O)C(C(c2cccc([N+](=O)[O-])c2)C2CC2)=C1O (stereo not shown) [IX-1]", "measured_endpoint": "inhibition at 30 µM", "assay_value": "122%"}
{"compound": "CCCC1(CCC)OC(=O)C(C(c2cccc(NS(=O)(=O)c3nnnn3-c3ccccc3)c2)C2CC2)=C1O (stereo not shown) [IX-50]", "measured_endpoint": "inhibition at 30 µM", "assay_value": "106%"}
{"compound": "O=C1OC(Cc2ccccc2)(Cc2ccccc2)C(O)=C1C(c1ccccc1)C1CC1 (stereo not shown) [DX-5]", "measured_endpoint": "inhibition at 30 µM", "assay_value": "103%"}
{"compound": "O=C1OC(Cc2ccccc2)(Cc2ccccc2)C(O)=C1C(c1cccc(NS(=O)(=O)c2ccc(F)cc2)c1)C1CC1 (stereo not shown) [IX-44]", "measured_endpoint": "inhibition at 30 µM", "assay_value": "80.3%"}
{"compound": "CCCC1(CCC)OC(=O)C(C(CC(C)C)c2cccc(NS(=O)(=O)c3cn(C)cn3)c2)=C1O (stereo not shown) [IX-22]", "measured_endpoint": "inhibition at 30 µM", "assay_value": "94.5%"}
{"compound": "CCCC1(CCC)OC(=O)C(C(c2ccccc2)C2CC2)=C1O (stereo not shown) [BX-12]", "measured_endpoint": "inhibition at 30 µM", "assay_value": "95.3%"}

----------
The compounds listed here are annotated with their inhibition at 10 µM.
# target_of_assay: HIV-1 protease (Human immunodeficiency virus type 1 group M subtype B)
# Construct: The protease (or proteinase) enzyme, consisting of only 99 amino acids
# assay_explanation: In vitro HIV protease inhibitory assay (fluorescently labeled substrate, avidin-polystyrene particles)
# Assay type: biochemical
# experimental_setup: HIV-1 dose 10.0 μM
measured_endpoint: inhibition at 10 µM (%)

{"compound": "CCCC1(CCC)OC(=O)C(C(c2cccc(N)c2)C2CC2)=C1O (stereo not drawn)", "target_of_assay": "HIV-1 protease (Human immunodeficiency virus type 1 group M subtype B)", "assay_value": 108}
{"compound": "O=C1OC(C(CCc2ccccc2)c2ccccc2)C(O)=C1C(c1ccccc1)C1CC1 (stereo not drawn)", "target_of_assay": "HIV-1 protease (Human immunodeficiency virus type 1 group M subtype B)", "assay_value": 108}
{"compound": "CC1(CCc2ccccc2)OC(=O)C(C(c2ccccc2)C2CC2)=C1O (stereo not drawn)", "target_of_assay": "HIV-1 protease (Human immunodeficiency virus type 1 group M subtype B)", "assay_value": 111}
{"compound": "CCCC1(Cc2ccccc2)OC(=O)C(C(c2cccc(NS(=O)(=O)c3ccc(C#N)cc3)c2)C(C)C)=C1O (stereo not drawn)", "target_of_assay": "HIV-1 protease (Human immunodeficiency virus type 1 group M subtype B)", "assay_value": 118}
{"compound": "CCCC1(CCC)OC(=O)C(C(c2cccc(NS(=O)(=O)c3nccn3C)c2)C2CC2)=C1O (stereo not drawn)", "target_of_assay": "HIV-1 protease (Human immunodeficiency virus type 1 group M subtype B)", "assay_value": 100}
{"compound": "CC(C)C1(CCCc2ccccc2)OC(=O)C(C(c2ccccc2)C2CC2)=C1O (stereo not drawn)", "target_of_assay": "HIV-1 protease (Human immunodeficiency virus type 1 group M subtype B)", "assay_value": 97.6}
{"compound": "CCC(C1=C(O)C(Cc2ccccc2)OC1=O)c1ccccc1 (stereo not drawn)", "target_of_assay": "HIV-1 protease (Human immunodeficiency virus type 1 group M subtype B)", "assay_value": 75.1}
{"compound": "CCCC1(Cc2ccccc2)OC(=O)C(C(c2cccc(NS(=O)(=O)c3ccccc3)c2)C(C)C)=C1O (stereo not drawn)", "target_of_assay": "HIV-1 protease (Human immunodeficiency virus type 1 group M subtype B)", "assay_value": 117}
{"compound": "O=C1OC2(CCN(C(=O)OCC3c4ccccc4-c4ccccc43)CC2)C(O)=C1C(c1ccccc1)C1CC1 (stereo not drawn)", "target_of_assay": "HIV-1 protease (Human immunodeficiency virus type 1 group M subtype B)", "assay_value": 86.8}
{"compound": "CCCC1(CCC)OC(=O)C(C(c2cccc(NS(=O)(=O)c3cn(C)cn3)c2)C2CC2)=C1O (stereo not drawn)", "target_of_assay": "HIV-1 protease (Human immunodeficiency virus type 1 group M subtype B)", "assay_value": 111}
{"compound": "CCCC1(CCC)OC(=O)C(C(c2cccc(NS(=O)(=O)c3ccc(C#N)cn3)c2)C2CC2)=C1O (stereo not drawn)", "target_of_assay": "HIV-1 protease (Human immunodeficiency virus type 1 group M subtype B)", "assay_value": 98.8}
{"compound": "CCCCC(CCc1ccccc1)C1OC(=O)C(C(c2ccccc2)C2CC2)=C1O (stereo not drawn) [GX-2]", "target_of_assay": "HIV-1 protease (Human immunodeficiency virus type 1 group M subtype B)", "assay_value": 88.3}
{"compound": "CCC(c1ccccc1)C1OC(=O)C(C(c2ccccc2)C2CC2)=C1O (stereo not drawn)", "target_of_assay": "HIV-1 protease (Human immunodeficiency virus type 1 group M subtype B)", "assay_value": 99.7}
{"compound": "O=C1OC2(CCCCC2CCc2ccccc2)C(O)=C1C(c1ccccc1)C1CC1 (stereo not drawn)", "target_of_assay": "HIV-1 protease (Human immunodeficiency virus type 1 group M subtype B)", "assay_value": 78.1}
{"compound": "CC(C)C1(C(C)C)OC(=O)C(C(c2ccccc2)C2CC2)=C1O (stereo not drawn)", "target_of_assay": "HIV-1 protease (Human immunodeficiency virus type 1 group M subtype B)", "assay_value": 108}
{"compound": "CCC1(Cc2ccccc2)OC(=O)C(C(c2ccccc2)C2CC2)=C1O (stereo not drawn)", "target_of_assay": "HIV-1 protease (Human immunodeficiency virus type 1 group M subtype B)", "assay_value": 103}
{"compound": "CCCCC1OC(=O)C(C(c2ccccc2)C2CC2)=C1O (stereo not drawn)", "target_of_assay": "HIV-1 protease (Human immunodeficiency virus type 1 group M subtype B)", "assay_value": 78.3}
{"compound": "CCCC1(CCC)OC(=O)C(C(c2cccc(NS(=O)(=O)c3ccc(C#N)cc3)c2)C(C)(C)C)=C1O (stereo not drawn)", "target_of_assay": "HIV-1 protease (Human immunodeficiency virus type 1 group M subtype B)", "assay_value": 120}
{"compound": "CCCC1(CCC)OC(=O)C(C(c2ccccc2)C2CC2)=C1O (stereo not drawn)", "target_of_assay": "HIV-1 protease (Human immunodeficiency virus type 1 group M subtype B)", "assay_value": 112}
{"compound": "O=C1OC(CCCc2ccccc2)(CCCc2ccccc2)C(O)=C1C(c1ccccc1)C1CC1 (stereo not drawn)", "target_of_assay": "HIV-1 protease (Human immunodeficiency virus type 1 group M subtype B)", "assay_value": 102}
{"compound": "O=C1OC(CCCc2ccccc2)(Cc2ccccc2)C(O)=C1C(c1ccccc1)C1CC1 (stereo not drawn)", "target_of_assay": "HIV-1 protease (Human immunodeficiency virus type 1 group M subtype B)", "assay_value": 116}
{"compound": "CCCCC(CCc1ccccc1)C1OC(=O)C(C(c2ccccc2)C2CC2)=C1O (single isomer, unassigned) [GX-1]", "target_of_assay": "HIV-1 protease (Human immunodeficiency virus type 1 group M subtype B)", "assay_value": 89.2}
{"compound": "CCC1(CCCc2ccccc2)OC(=O)C(C(c2ccccc2)C2CC2)=C1O (stereo not drawn)", "target_of_assay": "HIV-1 protease (Human immunodeficiency virus type 1 group M subtype B)", "assay_value": 111}
{"compound": "O=C1OC(Cc2ccccc2)(Cc2ccccc2)C(O)=C1C(c1cccc(NS(=O)(=O)c2cccc3cccnc23)c1)C1CC1 (stereo not drawn)", "target_of_assay": "HIV-1 protease (Human immunodeficiency virus type 1 group M subtype B)", "assay_value": 87}

Hey, just so you know, these numbers are from patent US5977169A.
